Attribution: patent US20260242478A1

Entries annotated with measured CD28 scFv signal
target-or-system: anti-CD28 scFv (VH - linker 1 - VL) (biotinylated (captured on neutravidin coated plates))
Sequence (scFv, as listed by the source): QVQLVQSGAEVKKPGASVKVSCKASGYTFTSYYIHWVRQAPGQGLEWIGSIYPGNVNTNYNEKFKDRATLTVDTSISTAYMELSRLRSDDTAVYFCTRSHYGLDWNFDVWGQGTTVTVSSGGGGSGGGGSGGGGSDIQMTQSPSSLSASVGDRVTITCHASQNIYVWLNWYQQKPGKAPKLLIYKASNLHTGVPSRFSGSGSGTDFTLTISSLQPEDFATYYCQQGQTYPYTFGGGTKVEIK
assay: clonal phage ELISA; biotinylated anti-CD28 scFv on neutravidin plate, phage detected with anti-M13-HRP;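 further: crude clonal phage supernatants added to wells preincubated with blocking buffer alone or blocking buffer plus soluble CD28 protein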

Consider the reported CD28 scFv signal for these binders:
{"binder": "APWCQIISGLECLT [Phage-230]", "observed": 0.169}
{"binder": "ITWCHVISGLECWN [Phage-228]", "observed": 0.193}
{"binder": "VPWCLIISGLDCLN (also called VPWCLIISGLDCIN (so in the source)) [Phage-231]", "observed": 0.107}
{"binder": "MDWCPRTLWHVCFN [Phage-240]", "observed": 2.6}
{"binder": "MDWCPRNLWHLCFA [Phage-245]", "observed": 1.4}
{"binder": "MDWCPSYLWHECFF [Phage-237]", "observed": 2.61}

// recorded CD28 scFv signal for MDWCPRYLWHECFD [Phage-244] : 2.07

GET /value?item= MDWCPRFMWAECFN [Phage-247] &field=CD28 scFv signal returns 2.6
